# TGI annotations
System: SF-295 CNS
Assay: NCI tumour cell line growth inhibition, 48 h

Recorded TGI, per entry:
- compound: "O=C(O)c1cc(Cl)cc2c1NC1(N2)C(=O)Nc2ccccc21 (stereo not given)"
  property measured: "TGI"
  assay result: "> 100 µM"
- compound: "CCN1C(=O)N(CC)C2C1NN=c1s/c(=C\\c3ccc[nH]3)c(=O)n12 (stereo not given)"
  property measured: "TGI"
  assay result: "> 40.3 µM"
- compound: "O/N=C1\\CCc2nonc2\\C1=N/Nc1ccccc1"
  property measured: "TGI"
  assay result: "> 100 µM"
- compound: "COc1cccc(C2C(C#N)=C(N)Oc3c2ccc2ccccc32)c1 (stereo not given)"
  property measured: "TGI"
  assay result: "10.7 µM"

IN: Enter reported TGI observed with SF-295 CNS for `Nc1ccc(C(=O)N/C(=C\c2cccc([N+](=O)[O-])c2)c2nc3ccc(Cl)cc3[nH]2)cc1`
OUT: > 100 µM

----------
Tested on: A498 renal
Test: NCI tumour cell line growth inhibition, 48 h
property measured: GI50

For orientation, consider the following solved cases.
- compound: "O=C(NN1C(=O)CSC1c1ccc(F)cc1)C(O)c1ccccc1 (centres undefined)"
  target desc: "A498 renal"
  property measured: "GI50"
  assay result: "> 100000 nM"
- compound: "CCSc1nc(N)c(C#N)c(-c2ccco2)c1C#N"
  target desc: "A498 renal"
  property measured: "GI50"
  assay result: "26500 nM"
- compound: "N.N.N.N.N.O=S(=O)([O-])C(F)(F)F.O=S(=O)([O-])C(F)(F)F.[Os+8]"
  target desc: "A498 renal"
  property measured: "GI50"
  assay result: "12000 nM"
- compound: "COc1ccc(-c2ccc(/C=N/n3c(COc4ccccc4Cl)n[nH]c3=S)o2)c([N+](=O)[O-])c1"
  target desc: "A498 renal"
  property measured: "GI50"
  assay result: "14400 nM"
- compound: "Oc1c(Cl)cc(Cl)c2cccnc12"
  target desc: "A498 renal"
  property measured: "GI50"
  assay result: "2920 nM"
- compound: "O=C1CCC(N2C(=O)c3cccc(NCCCC4CCN(CCNC(=O)c5cc6c(o5)C(=O)c5ccccc5C6=O)CC4)c3C2=O)C(=O)N1 (centres undefined)"
  target desc: "A498 renal"
  property measured: "GI50"
  assay result: "1410 nM"
- compound: "CC(=O)[CH-]C(=O)Nc1ccccc1.CC(=O)[CH-]C(=O)Nc1ccccc1.CC[O-].CC[O-].[Ti+4]"
  target desc: "A498 renal"
  property measured: "GI50"
  assay result: "> 100000 nM"
- compound: "CCN(C(=O)CN1CCN(c2cc3c(cc2F)c(=O)c(C(=O)O)cn3CC)CC1)c1nc(-c2ccccc2)cs1"
  target desc: "A498 renal"
  property measured: "GI50"
  assay result: "244 nM"
- compound: "Brc1cccc(-c2cc(-c3ccc4nccnc4c3)[nH]n2)c1"
  target desc: "A498 renal"
  property measured: "GI50"
  assay result: "418 nM"
- compound: "COc1cc(C2CC(=O)Nc3c2cc(Br)c2ccccc32)cc(Br)c1OC (centres undefined)"
  target desc: "A498 renal"
  property measured: "GI50"
  assay result: "1000 nM"

IN: Entry `N/C(=N\c1nc2ccccc2s1)NC(=NC1CCCCC1)NC1CCCCC1` has what GI50?
OUT: 1710 nM

IN: Which value of GI50 has been reported for `O=S(=O)(NC1=NCCN1C(=S)SN1CCn2c1nsc2=S)c1cccc(OC(F)(F)F)c1` in the records?
OUT: 22600 nM

IN: State the recorded GI50 for this entry: `C[C@H]1c2ccccc2CN1CCCOc1cc2c(cc1OCC1CC1)C1(CCCC1)C(N)=N2`
OUT: 1560 nM

IN: What GI50 value was documented for this compound, CCN(CC)CCCC(C)Nc1c(-c2ccccc2)cnc2cc(Cl)ccc12 (centres undefined) ?
OUT: 2710 nM

IN: Need GI50 of CC(=O)OC(C)C(OC(C)=O)C(OC(C)=O)C(/C=C/C1CC=CC(=O)O1)OC(C)=O (centres undefined) , thanks.
OUT: 16900 nM

IN: Item under review: `CN1CCN(c2cc3nc4ccccc4n(-c4ccc(Cl)cc4)c-3cc2=N)CC1` . Reported GI50?
OUT: > 100000 nM

IN: Could you tell me which GI50 is on file for O=C1CSC(c2ccccc2O)N1c1nnc(Cn2ccnc2)o1 (centres undefined) ?
OUT: 21000 nM

IN: Value lookup for GI50; key = `C=C1C(=O)O[C@H]2[C@H]1CC/C(CNC(=O)/C=C/c1ccccc1)=C\CC[C@@]1(C)O[C@@H]21`
OUT: 1960 nM

IN: Entry `O=c1c(O)cccn1CCCN(CCCn1cccc(O)c1=O)CCn1cccc(O)c1=O` has what GI50?
OUT: 22900 nM

----------
Test system: SF-539 CNS
Test: NCI tumour cell line growth inhibition, 48 h
// reported TGI per item
Numeric answer only, unit µM assumed.

IN: # query: TGI | item `COc1cccc(CC(C)=C(c2ccc(OCCCN(C)C)cc2)c2ccc(OCCCN(C)C)cc2)c1` | system: SF-539 CNS
OUT: 0.801

IN: For the record `c1csc(-c2csc(-c3ccsc3)c2)c1` , what value of TGI is listed for SF-539 CNS?
OUT: 98.6

----------
Test system: CAKI-1 renal
Experiment: NCI tumour cell line growth inhibition, 48 h
property measured: TGI (µM)
Could you give me the number in µM? Just the number is fine.

Reference set, count: 3
- structure as smiles: "O=C1c2ccccc2-c2nc(-c3ccccc3)cc3c2c1nc1ccccc13"
  units label: "µM"
  TGI: 74.9
- structure as smiles: "CC1=C(Cl)C[C@@H](/C(C)=C\\Cl)O[C@@]1(O)C(Br)Br"
  units label: "µM"
  TGI: 35.4
- structure as smiles: "CC(=O)O[C@H]1CN(S(=O)(=O)c2ccc(C)cc2)C[C@@H]1C1CCCCC1"
  units label: "µM"
  TGI: 83.7

Proceed to the following item.
IN: Fill in: TGI of `CNC(=S)N/N=C(\C)c1nc2ncccc2[nH]1` is ___
OUT: 99.1

----------
# TGI annotations
System: DMS 114 small cell lung
Assay: NCI tumour cell line growth inhibition, 48 h

Example compounds with recorded TGI:
- compound: "O=C(O)COc1ccc(C(=O)/C(SS/C(C(=O)c2ccc(OCC(=O)O)c(Cl)c2Cl)=C2\\C=C(c3ccc(Br)cc3)SS2)=C2/C=C(c3ccc(Br)cc3)SS2)c(Cl)c1Cl"
  TGI: "6.76 µM"
- compound: "O=C(N/C(=C\\c1cc(Cl)ccc1Cl)c1nc2ccc(Cl)cc2[nH]1)c1ccccc1"
  TGI: "29.8 µM"
- compound: "Cc1nc2c(sc(=S)n2-c2ccccc2)c2nc3ccccc3n12"
  TGI: "> 100 µM"

IN: Item `NC(=O)C12CC3CC(CC(Br)(C3)C1)C2` has what recorded TGI?
OUT: > 100 µM

IN: Report TGI for Nc1ncnc2c1nnn2C1C=C(CO)C(O)C1O (stereo not given) please.
OUT: > 86.2 µM

IN: Query (compound): `Cn1nnc2c(C(N)=O)ncn2c1=O` ; field requested: TGI
OUT: > 100 µM

IN: Which measured TGI value corresponds to Cc1occ2c1C(=O)CC1C2[C@@H](O)CC2C(C)(C)CCC[C@]12C (stereo not given in full) ?
OUT: > 100 µM

IN: # query: TGI of entry CCCCCCCCCCCCCP(=O)(NCC(N)=O)OCC (stereo not given)
OUT: 33.4 µM

IN: Please report the recorded TGI for `COc1cccc(NC(=O)CC(=O)NNCC(=O)Nc2nnc(-c3ccc(N(CCC#N)S(=O)(=O)c4ccccc4)cc3)s2)c1` .
OUT: > 100 µM

IN: Recorded TGI of COC1(C)C(=O)N2C1N(C(=O)OCc1ccccc1)CC2(C)C (stereo not given) , please.
OUT: > 100 µM

----------
System: OVCAR-8 ovarian
Experiment: NCI tumour cell line growth inhibition, 48 h
property measured: TGI (µM)
Express your answer in µM, writing the number without its unit.

Some entries whose results are on file:
- compound: "S=C(N/N=C\\c1ccccn1)N(Cc1ccccn1)Cc1ccccn1"
  TGI [µM]: 12.7
- compound: "CN(C)Cc1cc(C(=O)/C=C/c2cccc(Cl)c2)cc(CN(C)C)c1O"
  TGI [µM]: 61.3
- compound: "Cc1cccc2c(Nc3ccc(NS(C)(=O)=O)cc3)c3ccc([N+](=O)[O-])cc3nc12"
  TGI [µM]: 6.42
- compound: "COc1nc(OC)nc(-c2cccc(F)c2)n1"
  TGI [µM]: 69.2
- compound: "O=C(Nc1cnc(C(F)(F)F)cn1)c1cc(Cl)ccc1O"
  TGI [µM]: 61.8

// switching to the query compound
IN: Please give the measured TGI for this compound: CCN(CC)CCCC(C)Nc1c(-c2ccccc2)cnc2cc(Cl)ccc12 (stereo unspecified)
OUT: 32.3

# credit: PubChem BioAssay (NCI)
